Settings: in isobutanol, 303.15 K
quantity name: solubility (mole fraction)
Reply with just the number.

Which value of solubility (mole fraction) has been reported for c1ccc(-n2c3ccccc3c3ccccc32)cc1 in the records?
0.00684

###

Conditions: in isobutanol, 283.15 K
quantity name: solubility (mole fraction)
Reply with just the number.

Which value of solubility (mole fraction) has been reported for c1ccc(-n2c3ccccc3c3ccccc32)cc1 in the records?
0.00379

###

Settings: in sec-butanol, 298.15 K
quantity name: solubility (mole fraction)
Reply with just the number.

Which value of solubility (mole fraction) has been reported for c1ccc(-n2c3ccccc3c3ccccc32)cc1 in the records?
0.00774

###

Settings: in dimethyl carbonate, 308.15 K
quantity name: solubility (mole fraction)
Reply with just the number.

Which value of solubility (mole fraction) has been reported for c1ccc(-n2c3ccccc3c3ccccc32)cc1 in the records?
0.145

###

Settings: in isobutyl acetate, 323.15 K
quantity name: solubility (mole fraction)
Reply with just the number.

Which value of solubility (mole fraction) has been reported for c1ccc(-n2c3ccccc3c3ccccc32)cc1 in the records?
0.38

###

Details: in n-pentanol, 293.15 K
quantity name: solubility (mole fraction)
Reply with just the number.

Which value of solubility (mole fraction) has been reported for c1ccc(-n2c3ccccc3c3ccccc32)cc1 in the records?
0.0122

###

Details: in isobutyl acetate, 288.15 K
quantity name: solubility (mole fraction)
Reply with just the number.

Which value of solubility (mole fraction) has been reported for c1ccc(-n2c3ccccc3c3ccccc32)cc1 in the records?
0.132

###

Details: in methyl acetate, 313.15 K
quantity name: solubility (mole fraction)
Reply with just the number.

Which value of solubility (mole fraction) has been reported for c1ccc(-n2c3ccccc3c3ccccc32)cc1 in the records?
0.237

###

Conditions: in n-propyl acetate, 313.15 K
quantity name: solubility (mole fraction)
Reply with just the number.

Which value of solubility (mole fraction) has been reported for c1ccc(-n2c3ccccc3c3ccccc32)cc1 in the records?
0.194

###

Settings: in dimethyl carbonate, 293.15 K
quantity name: solubility (mole fraction)
Reply with just the number.

Which value of solubility (mole fraction) has been reported for c1ccc(-n2c3ccccc3c3ccccc32)cc1 in the records?
0.0771

###

Settings: in dimethyl carbonate, 313.15 K
quantity name: solubility (mole fraction)

Which value of solubility (mole fraction) has been reported for c1ccc(-n2c3ccccc3c3ccccc32)cc1 in the records?
0.175

###

Details: in n-pentanol, 288.15 K
quantity name: solubility (mole fraction)

Which value of solubility (mole fraction) has been reported for c1ccc(-n2c3ccccc3c3ccccc32)cc1 in the records?
0.0106

###

Conditions: in ethyl lactate, 308.15 K
quantity name: solubility (mole fraction)
Reply with just the number.

Which value of solubility (mole fraction) has been reported for c1ccc(-n2c3ccccc3c3ccccc32)cc1 in the records?
0.0731

###

Conditions: in ethyl acetate, 308.15 K
quantity name: solubility (mole fraction)
Reply with just the number.

Which value of solubility (mole fraction) has been reported for c1ccc(-n2c3ccccc3c3ccccc32)cc1 in the records?
0.197

###

Details: in n-butyl acetate, 288.15 K
quantity name: solubility (mole fraction)
Reply with just the number.

Which value of solubility (mole fraction) has been reported for c1ccc(-n2c3ccccc3c3ccccc32)cc1 in the records?
0.129

###

Conditions: in ethyl acetate, 288.15 K
quantity name: solubility (mole fraction)
Reply with just the number.

Which value of solubility (mole fraction) has been reported for c1ccc(-n2c3ccccc3c3ccccc32)cc1 in the records?
0.109

###

Details: in n-butyl acetate, 283.15 K
quantity name: solubility (mole fraction)
Reply with just the number.

Which value of solubility (mole fraction) has been reported for c1ccc(-n2c3ccccc3c3ccccc32)cc1 in the records?
0.113

###

Conditions: in isobutanol, 318.15 K
quantity name: solubility (mole fraction)

Which value of solubility (mole fraction) has been reported for c1ccc(-n2c3ccccc3c3ccccc32)cc1 in the records?
0.0109

###

Conditions: in isopropyl acetate, 308.15 K
quantity name: solubility (mole fraction)

Which value of solubility (mole fraction) has been reported for c1ccc(-n2c3ccccc3c3ccccc32)cc1 in the records?
0.163

###

Details: in isobutanol, 293.15 K
quantity name: solubility (mole fraction)
Reply with just the number.

Which value of solubility (mole fraction) has been reported for c1ccc(-n2c3ccccc3c3ccccc32)cc1 in the records?
0.00494

###

Details: in isobutyl acetate, 293.15 K
quantity name: solubility (mole fraction)

Which value of solubility (mole fraction) has been reported for c1ccc(-n2c3ccccc3c3ccccc32)cc1 in the records?
0.151

###

Conditions: in methyl acetate, 298.15 K
quantity name: solubility (mole fraction)
Reply with just the number.

Which value of solubility (mole fraction) has been reported for c1ccc(-n2c3ccccc3c3ccccc32)cc1 in the records?
0.128

###

Settings: in n-propyl acetate, 288.15 K
quantity name: solubility (mole fraction)
Reply with just the number.

Which value of solubility (mole fraction) has been reported for c1ccc(-n2c3ccccc3c3ccccc32)cc1 in the records?
0.0873

###

Conditions: in sec-butanol, 303.15 K
quantity name: solubility (mole fraction)
Reply with just the number.

Which value of solubility (mole fraction) has been reported for c1ccc(-n2c3ccccc3c3ccccc32)cc1 in the records?
0.00939

###

Details: in isopropyl acetate, 298.15 K
quantity name: solubility (mole fraction)
Reply with just the number.

Which value of solubility (mole fraction) has been reported for c1ccc(-n2c3ccccc3c3ccccc32)cc1 in the records?
0.111

###

Settings: in ethyl acetate, 323.15 K
quantity name: solubility (mole fraction)
Reply with just the number.

Which value of solubility (mole fraction) has been reported for c1ccc(-n2c3ccccc3c3ccccc32)cc1 in the records?
0.337

###

Conditions: in ethyl lactate, 288.15 K
quantity name: solubility (mole fraction)
Reply with just the number.

Which value of solubility (mole fraction) has been reported for c1ccc(-n2c3ccccc3c3ccccc32)cc1 in the records?
0.0362

###

Settings: in n-propyl acetate, 318.15 K
quantity name: solubility (mole fraction)
Reply with just the number.

Which value of solubility (mole fraction) has been reported for c1ccc(-n2c3ccccc3c3ccccc32)cc1 in the records?
0.231

###

Conditions: in isopropyl acetate, 318.15 K
quantity name: solubility (mole fraction)

Which value of solubility (mole fraction) has been reported for c1ccc(-n2c3ccccc3c3ccccc32)cc1 in the records?
0.238

###

Conditions: in methyl acetate, 293.15 K
quantity name: solubility (mole fraction)
Reply with just the number.

Which value of solubility (mole fraction) has been reported for c1ccc(-n2c3ccccc3c3ccccc32)cc1 in the records?
0.103

###

Details: in isopentanol, 293.15 K
quantity name: solubility (mole fraction)
Reply with just the number.

Which value of solubility (mole fraction) has been reported for c1ccc(-n2c3ccccc3c3ccccc32)cc1 in the records?
0.00852

###

Details: in methyl acetate, 288.15 K
quantity name: solubility (mole fraction)
Reply with just the number.

Which value of solubility (mole fraction) has been reported for c1ccc(-n2c3ccccc3c3ccccc32)cc1 in the records?
0.0874

###

Conditions: in ethyl acetate, 318.15 K
quantity name: solubility (mole fraction)

Which value of solubility (mole fraction) has been reported for c1ccc(-n2c3ccccc3c3ccccc32)cc1 in the records?
0.286

###

Conditions: in isobutyl acetate, 303.15 K
quantity name: solubility (mole fraction)

Which value of solubility (mole fraction) has been reported for c1ccc(-n2c3ccccc3c3ccccc32)cc1 in the records?
0.197

###

Conditions: in isobutyl acetate, 298.15 K
quantity name: solubility (mole fraction)
Reply with just the number.

Which value of solubility (mole fraction) has been reported for c1ccc(-n2c3ccccc3c3ccccc32)cc1 in the records?
0.177

###

Conditions: in dimethyl carbonate, 318.15 K
quantity name: solubility (mole fraction)
Reply with just the number.

Which value of solubility (mole fraction) has been reported for c1ccc(-n2c3ccccc3c3ccccc32)cc1 in the records?
0.232

###

Settings: in isopropyl acetate, 288.15 K
quantity name: solubility (mole fraction)
Reply with just the number.

Which value of solubility (mole fraction) has been reported for c1ccc(-n2c3ccccc3c3ccccc32)cc1 in the records?
0.0842

###

Settings: in isobutanol, 288.15 K
quantity name: solubility (mole fraction)
Reply with just the number.

Which value of solubility (mole fraction) has been reported for c1ccc(-n2c3ccccc3c3ccccc32)cc1 in the records?
0.00416

###

Settings: in methyl acetate, 323.15 K
quantity name: solubility (mole fraction)
Reply with just the number.

Which value of solubility (mole fraction) has been reported for c1ccc(-n2c3ccccc3c3ccccc32)cc1 in the records?
0.354

###

Details: in ethyl acetate, 303.15 K
quantity name: solubility (mole fraction)
Reply with just the number.

Which value of solubility (mole fraction) has been reported for c1ccc(-n2c3ccccc3c3ccccc32)cc1 in the records?
0.162

###

Conditions: in ethyl lactate, 318.15 K
quantity name: solubility (mole fraction)
Reply with just the number.

Which value of solubility (mole fraction) has been reported for c1ccc(-n2c3ccccc3c3ccccc32)cc1 in the records?
0.111

###

Conditions: in methyl acetate, 318.15 K
quantity name: solubility (mole fraction)
Reply with just the number.

Which value of solubility (mole fraction) has been reported for c1ccc(-n2c3ccccc3c3ccccc32)cc1 in the records?
0.277

###

Conditions: in n-pentanol, 283.15 K
quantity name: solubility (mole fraction)
Reply with just the number.

Which value of solubility (mole fraction) has been reported for c1ccc(-n2c3ccccc3c3ccccc32)cc1 in the records?
0.0091
